- System: Escherichia coli
- protocol: Ratio of CC3 for Escherichia coli DNA gyrase gyrA G81C mutant to CC3 for Escherichia coli wild-type DNA gyrase
property: Ratio
The response must contain the number and no unit.

CC[C@@H]1CCN(c2c(F)cc3c(=O)n(N)c(=O)n(C4CC4)c3c2C)C1 :: 3.1
CC[C@@H]1CCN(c2c(F)cn3c(=O)n(N)c(=O)c(C4CC4)c3c2OC)C1 :: 2.3

Query block: Name the reported Ratio value associated with the compound CC[C@@H]1CCN(c2c(F)cc3c(=O)n(N)c(=O)n(C4CC4)c3c2OC)C1
Result block: 2.3

Query block: Continue with CC[C@@H]1CCN(c2c(F)cc3c(=O)c(C(=O)O)cn(C4CC4)c3c2OC)C1
Result block: 13
